Experiment: Serum/water ratio
Format: in vivo, human
Conditions: median serum level of first samples (26 employees) divided by airport drinking-water level
MEASURE: Serum/water ratio
Write the number on its own, no unit after it.

Name the recorded Serum/water ratio for "O=C(O)C(F)(F)C(F)(F)C(F)(F)C(F)(F)C(F)(F)C(F)(F)F" .
4.74

Any idea what Serum/water ratio was measured for "O=C(O)C(F)(F)C(F)(F)C(F)(F)C(F)(F)C(F)(F)C(F)(F)C(F)(F)F" ?
30.3

Reported Serum/water ratio, compound "O=S(=O)(O)C(F)(F)C(F)(F)C(F)(F)C(F)(F)F" : ____
1.65

Reported Serum/water ratio for "O=S(=O)(O)C(F)(F)C(F)(F)C(F)(F)C(F)(F)C(F)(F)F" : what is it?
38.3

For "O=S(=O)(O)C(F)(F)C(F)(F)C(F)(F)C(F)(F)C(F)(F)C(F)(F)F" , what is its reported Serum/water ratio?
107

Need Serum/water ratio, item "O=S(=O)(O)C(F)(F)C(F)(F)C(F)(F)C(F)(F)C(F)(F)C(F)(F)C(F)(F)C(F)(F)F"
153

Can you look up the measured Serum/water ratio of "O=C(O)C(F)(F)C(F)(F)C(F)(F)C(F)(F)C(F)(F)F" for me?
1.15

Suppose we examine the compound "O=S(=O)(O)C(F)(F)C(F)(F)C(F)(F)C(F)(F)C(F)(F)C(F)(F)C(F)(F)F" ; what Serum/water ratio value has been reported?
81.3
